Target: E2DH Type I (HSD Type I) in T47D breast cancer cells (Homo sapiens, UniProt P14061)
Construct: T47D breast cancer cells in which E2HSD Type I activity is abundant; endogenous in cells; host or cells: T47D breast cancer cells
Sequence (P14061 2-328 limits assumed): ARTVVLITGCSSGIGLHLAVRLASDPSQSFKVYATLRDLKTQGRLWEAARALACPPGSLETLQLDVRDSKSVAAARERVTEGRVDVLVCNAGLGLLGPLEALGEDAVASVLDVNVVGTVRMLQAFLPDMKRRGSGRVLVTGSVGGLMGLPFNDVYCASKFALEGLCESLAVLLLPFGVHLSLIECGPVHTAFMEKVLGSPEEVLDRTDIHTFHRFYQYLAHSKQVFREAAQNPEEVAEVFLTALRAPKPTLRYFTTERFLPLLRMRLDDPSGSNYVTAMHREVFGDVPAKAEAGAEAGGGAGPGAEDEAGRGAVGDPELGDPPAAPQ
Assay: Conversion of oestrone to oestradiol in intact T47D cell monolayers (Protocol 7)
Format: cell-based
Settings: T47D, measured at 10 μM, read-out: % Inhibition E1 → E2 ± SD (HSD Type I)
ASSAY_METRIC: inhibition at 10 µM (%)
Answer in %, number only, no unit symbol.

Examples with their reported inhibition at 10 µM follow.
Task item: # return recorded inhibition at 10 µM for input CN1C(=O)CC2C3CCc4cc(O)ccc4C3CC[C@]2(C)C1=O (some centres unmarked) [compound 188]
Reply: 33

Task item: Check the records and state inhibition at 10 µM for C[C@]12CCC3c4ccc(O)cc4CCC3C1CC(=O)N(CCCCBr)C2=O (some centres unmarked) [compound 235]
Reply: 16.6

Task item: Report inhibition at 10 µM for COc1cc2c(cc1O)CCC1C2CC[C@]2(C)C(=O)NC(=O)CC12 (some centres unmarked) [compound 325]
Reply: 7.78

Task item: State its inhibition at 10 µM for this molecule: CCCN1C(=O)CC2C3CCc4cc(OS(N)(=O)=O)ccc4C3CC[C@]2(C)C1=O (some centres unmarked) [compound 213]
Reply: 22.5

Moving on to another molecule below.
Task item: Return inhibition at 10 µM for the following molecule: CCN1C(=O)CC2C3CCc4cc(OS(N)(=O)=O)ccc4C3CC[C@]2(C)C1=O (some centres unmarked) [compound 281]
Reply: 24.7

* * *

Molecular target: E2DH Type II (HSD Type II) in MDA-MB231 breast cancer cells (Homo sapiens, UniProt P37059)
Construct: endogenous in cells; host or cells: MDA-MB-231 breast cancer cells
Assay: Conversion of oestradiol to oestrone in intact MDA-MB231 cell monolayers (Protocol 7)
Format: cell-based
Conditions: MDA-MB-231, measured at 10 μM, read-out: % Inhibition E2 → E1 ± SD (HSD Type II)
ASSAY_METRIC: inhibition at 10 µM (%)
# number only, unit % dropped from output

Worked cases, answers included:
Task item: Give inhibition at 10 µM for this entry on E2DH Type II (HSD Type II) in MDA-MB231 breast cancer cells (Homo sapiens, UniProt P37059): C[C@]12CCC3c4ccc(O)cc4CCC3C1CC(=O)N(Cc1cccnc1)C2=O (some centres unmarked) [compound 234]
Reply: -1.45

Task item: Give E2DH Type II (HSD Type II) in MDA-MB231 breast cancer cells (Homo sapiens, UniProt P37059) inhibition at 10 µM for the following molecule: CCCCCN1C(=O)CC2C3CCc4cc(O)ccc4C3CC[C@]2(C)C1=O (some centres unmarked) [compound 190]
Reply: 0.48

Task item: Jot down inhibition at 10 µM (E2DH Type II (HSD Type II) in MDA-MB231 breast cancer cells (Homo sapiens, UniProt P37059)) of CN1C(=O)CC2C3CCc4cc(O)ccc4C3CC[C@]2(C)C1=O (some centres unmarked) [compound 188] .
Reply: -3.51

Task item: Please look at CCCN1C(=O)CC2C3CCc4cc(O)ccc4C3CC[C@]2(C)C1=O (some centres unmarked) [compound 189] and tell me its recorded inhibition at 10 µM on E2DH Type II (HSD Type II) in MDA-MB231 breast cancer cells (Homo sapiens, UniProt P37059).
Reply: 5.05

Task item: Check E2DH Type II (HSD Type II) in MDA-MB231 breast cancer cells (Homo sapiens, UniProt P37059) data and give inhibition at 10 µM for COc1cc2c(cc1OS(N)(=O)=O)CCC1C2CC[C@]2(C)C(=O)NC(=O)CC12 (some centres unmarked) [compound 326] .
Reply: 15

Task item: Write down the reported inhibition at 10 µM (system: E2DH Type II (HSD Type II) in MDA-MB231 breast cancer cells (Homo sapiens, UniProt P37059)) of C[C@]12CCC3c4ccc(OS(N)(=O)=O)cc4CCC3C1CC(=O)N(Cc1ccccc1)C2=O (some centres unmarked) [compound 236]
Reply: 5.84

Task item: Name the recorded inhibition at 10 µM of CCN1C(=O)CC2C3CCc4cc(O)ccc4C3CC[C@]2(C)C1=O (some centres unmarked) [compound 275] , assay system E2DH Type II (HSD Type II) in MDA-MB231 breast cancer cells (Homo sapiens, UniProt P37059).
Reply: 32.1

---
Task item: Would you please give the reported inhibition at 10 µM of C[C@]12CCC3c4ccc(O)cc4CCC3C1CC(=O)N(CC1CC1)C2=O (some centres unmarked) [compound 278] with E2DH Type II (HSD Type II) in MDA-MB231 breast cancer cells (Homo sapiens, UniProt P37059)?
Reply: 8.31
